Attribution: patent US20230286973A1

Answer each item with its documented Liver Microsome Stability (Multiple Species): Mouse - % Remaining after 30 min w/NADPH.
- assayProtocol: Liver Microsome Stability Assay (mouse)
- testSettings: mouse liver microsomes, with NADPH, 1.0 uM compound

IN: Which Liver Microsome Stability (Multiple Species): Mouse - % Remaining after 30 min w/NADPH reading was recorded for the molecule CCc1ccc(N2CCC[C@@H]2c2csc(NC(=O)c3cccn3Cc3ccncc3)n2)cn1 ?
OUT: 0.28%

IN: Which Liver Microsome Stability (Multiple Species): Mouse - % Remaining after 30 min w/NADPH reading was recorded for the molecule CC(=O)Nc1ccc(N2CCC[C@@H]2c2csc(NC(=O)c3cccn3Cc3cc(F)nc(F)c3)n2)cc1 ?
OUT: 17.1%

IN: Which Liver Microsome Stability (Multiple Species): Mouse - % Remaining after 30 min w/NADPH reading was recorded for the molecule N#CC[C@@H](O)Cn1cccc1C(=O)Nc1nc([C@H]2CCCN2c2ccccc2)cs1 ?
OUT: 3.03%

IN: Which Liver Microsome Stability (Multiple Species): Mouse - % Remaining after 30 min w/NADPH reading was recorded for the molecule NC(=O)N1CCC(Oc2ccc(N3CCC[C@@H]3c3csc(NC(=O)c4cccn4Cc4ccnc(F)c4)n3)cn2)CC1 ?
OUT: 36%

IN: Which Liver Microsome Stability (Multiple Species): Mouse - % Remaining after 30 min w/NADPH reading was recorded for the molecule CN1CC(OC(=O)Nc2ccc(N3CCC[C@@H]3c3csc(NC(=O)c4cccn4Cc4ccnc(F)c4)n3)cc2)C1 ?
OUT: 23.8%

IN: Which Liver Microsome Stability (Multiple Species): Mouse - % Remaining after 30 min w/NADPH reading was recorded for the molecule O=C(NC/C=C/c1csc(NC(=O)c2cccn2Cc2ccncc2)n1)c1ccccc1 ?
OUT: 1.05%

IN: Which Liver Microsome Stability (Multiple Species): Mouse - % Remaining after 30 min w/NADPH reading was recorded for the molecule CCn1cnc(/C=C/c2csc(NC(=O)c3cccn3Cc3ccncc3)n2)c1 ?
OUT: 0.32%

IN: Which Liver Microsome Stability (Multiple Species): Mouse - % Remaining after 30 min w/NADPH reading was recorded for the molecule CC(C)n1cnc(/C=C/Cc2csc(NC(=O)c3cccn3Cc3ccnc(F)c3)n2)c1 ?
OUT: 0.95%

---

- assayProtocol: Liver Microsome Stability Assay (mouse)
- testSettings: mouse liver microsomes, with NADPH, 1.0 uM compound
Recorded Liver Microsome Stability (Multiple Species): Mouse - % Remaining after 30 min w/NADPH split into classes L: < 5%; M: ≥ 5% and < 30%; H: ≥ 30%

IN: Please report the category associated with NCc1ccc(N2CCC[C@@H]2c2csc(NC(=O)c3cccn3Cc3ccncc3)n2)cc1 , nothing else.
OUT: H

IN: Please report the category associated with O=C(O)c1ccc(N2CCC[C@@H]2c2csc(NC(=O)c3cccn3Cc3ccncc3)n2)cc1 , nothing else.
OUT: M

IN: Please report the category associated with O=C(Nc1nc([C@H]2CCCN2c2ccc(OC3CCNCC3)cc2)cs1)c1cccn1Cc1ccncc1 , nothing else.
OUT: H

IN: Please report the category associated with O=C(Nc1nc([C@H]2CCCN2c2ccccc2)cs1)c1cccn1CCc1cccnc1 , nothing else.
OUT: L

IN: Please report the category associated with O=C(Nc1nc([C@H]2CCCN2c2ccc(OC3CCN(C(=O)C(F)F)CC3)cc2)cs1)c1cccn1Cc1ccnc(F)c1 , nothing else.
OUT: M

IN: Please report the category associated with COCc1ccc(N2CCC[C@@H]2c2csc(NC(=O)c3cccn3Cc3ccncc3)n2)cc1 , nothing else.
OUT: L

IN: Please report the category associated with O=C(Nc1nc([C@H]2CCCN2c2ccccc2)cs1)c1cccn1Cc1ccnc(Br)c1 , nothing else.
OUT: M

IN: Please report the category associated with C[C@@H](N)c1ccc(N2CCC[C@@H]2c2csc(NC(=O)c3cccn3Cc3ccnc(F)c3)n2)cc1 , nothing else.
OUT: H

IN: Please report the category associated with CC(C)c1nc(/C=C/c2csc(NC(=O)c3cccn3Cc3ccncc3)n2)cn1C , nothing else.
OUT: L

IN: Please report the category associated with O=C(Nc1nc([C@@H]2CCCN(c3ccccn3)C2)cs1)c1cccn1Cc1ccncc1 , nothing else.
OUT: L

IN: Please report the category associated with O=C(Nc1nc([C@H]2CCCN2c2ccccc2)cs1)c1cccn1CCC1CCOC1 (stereo partly shown) , nothing else.
OUT: M

IN: Please report the category associated with CC1=NC(/C=C/c2csc(NC(=O)c3cccn3Cc3ccncc3)n2)CO1 (stereo not shown) , nothing else.
OUT: L

IN: Please report the category associated with O=C(Nc1nc(/C=C/[C@H]2CCCCN2)cs1)c1cccn1Cc1ccncc1 , nothing else.
OUT: H

IN: Please report the category associated with CN(C)CCO[C@@H]1C[C@H](c2csc(NC(=O)c3cccn3Cc3ccncc3)n2)N(c2ccccc2)C1 , nothing else.
OUT: H

IN: Please report the category associated with O=C(Nc1nc([C@H]2CCCN2c2ccccc2)cs1)c1ccc[nH]1 , nothing else.
OUT: M

IN: Please report the category associated with CC(=O)N1CCC[C@@H](Oc2ccc(N3CCC[C@@H]3c3csc(NC(=O)c4cccn4Cc4ccnc(F)c4)n3)cc2)C1 , nothing else.
OUT: L

IN: Please report the category associated with C#CCn1cccc1C(=O)Nc1nc([C@H]2CCCN2c2ccccc2)cs1 , nothing else.
OUT: H

IN: Please report the category associated with CC(=O)N1CCC(O[C@@H]2C[C@H](c3csc(NC(=O)c4cccn4Cc4ccncc4)n3)N(c3ccccc3)C2)CC1 , nothing else.
OUT: L

IN: Please report the category associated with NC(=O)N1CCC(Oc2ccc(N3CCC[C@@H]3c3csc(NC(=O)c4cccn4Cc4ccnc(F)c4)n3)nc2)CC1 , nothing else.
OUT: H

IN: Please report the category associated with N#CCCCn1cccc1C(=O)Nc1nc([C@H]2CCCN2c2ccccc2)cs1 , nothing else.
OUT: M

IN: Please report the category associated with CC(=O)N1CCOC(/C=C/c2csc(NC(=O)c3cccn3Cc3ccncc3)n2)C1 (stereo not shown) , nothing else.
OUT: M

IN: Please report the category associated with CC(=O)Nc1cc(F)c(N2CCC[C@@H]2c2csc(NC(=O)c3cccn3Cc3ccnc(F)c3)n2)c(F)c1 , nothing else.
OUT: L

IN: Please report the category associated with Cc1ccnc(/C=C/c2csc(NC(=O)c3cccn3Cc3ccncc3)n2)c1 [Compound E1] , nothing else.
OUT: L

IN: Please report the category associated with CC(=O)N1CCC(Cc2ccc(N3CCC[C@@H]3c3csc(NC(=O)c4cccn4Cc4ccnc(F)c4)n3)cc2)CC1 , nothing else.
OUT: M

IN: Please report the category associated with CCc1ccc(N2CCC[C@@H]2c2csc(NC(=O)c3cccn3CC3CCOCC3)n2)cn1 , nothing else.
OUT: M

IN: Please report the category associated with O=C(Nc1nc([C@H]2CCCN2c2ccc(OC3CCN(C(=O)CO)CC3)cc2)cs1)c1cccn1Cc1ccnc(F)c1 , nothing else.
OUT: M

IN: Please report the category associated with O=C(Nc1nc([C@H]2CCCN2c2ccccc2)cs1)c1cccn1CC1CCC(F)(F)CC1 , nothing else.
OUT: H

IN: Please report the category associated with O=C(Nc1nc([C@H]2CCCN2C2COC2)cs1)c1cccn1Cc1ccncc1 , nothing else.
OUT: L

IN: Please report the category associated with O=C(Nc1nc(/C=C/c2cn3c(n2)CCC3)cs1)c1cccn1Cc1ccnc(F)c1 , nothing else.
OUT: M

IN: Please report the category associated with CC(=O)N1CC=C(Oc2ccc(N3CCC[C@@H]3c3csc(NC(=O)c4cccn4Cc4ccnc(F)c4)n3)cc2)CC1 , nothing else.
OUT: L

---

- assayProtocol: Liver Microsome Stability Assay (mouse)
- testSettings: mouse liver microsomes, with NADPH, 1.0 uM compound
measuredProperty: Liver Microsome Stability (Multiple Species): Mouse - % Remaining after 30 min w/NADPH (%)
Express your answer in %, writing the number without its unit.

IN: Which Liver Microsome Stability (Multiple Species): Mouse - % Remaining after 30 min w/NADPH reading was recorded for the molecule O=C(Nc1nc([C@H]2CCCN2c2ccc(OC3CCN(C(=O)C(F)(F)F)CC3)cc2)cs1)c1cccn1Cc1ccnc(F)c1 ?
OUT: 52.3

IN: Which Liver Microsome Stability (Multiple Species): Mouse - % Remaining after 30 min w/NADPH reading was recorded for the molecule C/C(=C\c1csc(NC(=O)c2cccn2Cc2ccncc2)n1)c1ccc(OC(F)(F)F)cn1 ?
OUT: 16.7

IN: Which Liver Microsome Stability (Multiple Species): Mouse - % Remaining after 30 min w/NADPH reading was recorded for the molecule O=C(Nc1nc([C@H]2CCCN2c2ccccc2)cs1)c1cccn1-c1csc2cnccc12 ?
OUT: 1.07

IN: Which Liver Microsome Stability (Multiple Species): Mouse - % Remaining after 30 min w/NADPH reading was recorded for the molecule CC(=O)Nc1ccc(N2CCC[C@@H]2c2csc(NC(=O)c3cccn3Cc3ccncc3)n2)cc1 ?
OUT: 4.16

IN: Which Liver Microsome Stability (Multiple Species): Mouse - % Remaining after 30 min w/NADPH reading was recorded for the molecule CC(C)c1cc(/C=C/c2csc(NC(=O)c3cccn3Cc3ccnc(F)c3)n2)nn1C ?
OUT: 8.33

IN: Which Liver Microsome Stability (Multiple Species): Mouse - % Remaining after 30 min w/NADPH reading was recorded for the molecule O=C(Nc1nc([C@H]2CCCN2c2ccccc2)cs1)c1cccn1CC1=CCOCC1 ?
OUT: 9.54

IN: Which Liver Microsome Stability (Multiple Species): Mouse - % Remaining after 30 min w/NADPH reading was recorded for the molecule O=C(Nc1nc([C@H]2CCCN2c2ccc(C3CCCCN3)cc2)cs1)c1cccn1Cc1ccncc1 (stereo partly shown) ?
OUT: 49.8

IN: Which Liver Microsome Stability (Multiple Species): Mouse - % Remaining after 30 min w/NADPH reading was recorded for the molecule CN(C)C(=O)CCCn1cccc1C(=O)Nc1nc([C@H]2CCCN2c2ccccc2)cs1 ?
OUT: 0.16

IN: Which Liver Microsome Stability (Multiple Species): Mouse - % Remaining after 30 min w/NADPH reading was recorded for the molecule CN1CCOC(/C=C/c2csc(NC(=O)c3cccn3Cc3ccncc3)n2)C1 (stereo not shown) ?
OUT: 10

IN: Which Liver Microsome Stability (Multiple Species): Mouse - % Remaining after 30 min w/NADPH reading was recorded for the molecule CC(C)n1cncc1/C=C/c1csc(NC(=O)c2cccn2Cc2ccncc2)n1 ?
OUT: 17.3

IN: Which Liver Microsome Stability (Multiple Species): Mouse - % Remaining after 30 min w/NADPH reading was recorded for the molecule CCc1ccc(N2CCC[C@@H]2c2csc(NC(=O)c3cccn3CC3CCOCC3)n2)cc1 ?
OUT: 74.3

IN: Which Liver Microsome Stability (Multiple Species): Mouse - % Remaining after 30 min w/NADPH reading was recorded for the molecule CC(=O)N(C)CCOc1ccc(N2CCC[C@@H]2c2csc(NC(=O)c3cccn3Cc3ccnc(F)c3)n2)cc1 ?
OUT: 0.81

IN: Which Liver Microsome Stability (Multiple Species): Mouse - % Remaining after 30 min w/NADPH reading was recorded for the molecule NC(=O)Nc1ccc(N2CCC[C@@H]2c2csc(NC(=O)c3cccn3Cc3ccnc(F)c3)n2)cc1 ?
OUT: 23.3

IN: Which Liver Microsome Stability (Multiple Species): Mouse - % Remaining after 30 min w/NADPH reading was recorded for the molecule CC(=O)NCc1ccc(N2CCC[C@@H]2c2csc(NC(=O)c3cccn3Cc3ccncc3)n2)cc1 ?
OUT: 0.76

IN: Which Liver Microsome Stability (Multiple Species): Mouse - % Remaining after 30 min w/NADPH reading was recorded for the molecule CCc1ccc(N2CCC[C@@H]2c2csc(NC(=O)c3cccn3Cc3ccncc3)n2)cc1 ?
OUT: 15.8

IN: Which Liver Microsome Stability (Multiple Species): Mouse - % Remaining after 30 min w/NADPH reading was recorded for the molecule O=C(Nc1nc([C@H]2CCCN2c2ccccc2)cs1)c1cccn1CCCc1cccnc1 ?
OUT: 0.46
